# ASSAYED SYSTEM: VEGFR2 (Homo sapiens, UniProt P35968)
# Sequence (P35968 20-1356, species assumed): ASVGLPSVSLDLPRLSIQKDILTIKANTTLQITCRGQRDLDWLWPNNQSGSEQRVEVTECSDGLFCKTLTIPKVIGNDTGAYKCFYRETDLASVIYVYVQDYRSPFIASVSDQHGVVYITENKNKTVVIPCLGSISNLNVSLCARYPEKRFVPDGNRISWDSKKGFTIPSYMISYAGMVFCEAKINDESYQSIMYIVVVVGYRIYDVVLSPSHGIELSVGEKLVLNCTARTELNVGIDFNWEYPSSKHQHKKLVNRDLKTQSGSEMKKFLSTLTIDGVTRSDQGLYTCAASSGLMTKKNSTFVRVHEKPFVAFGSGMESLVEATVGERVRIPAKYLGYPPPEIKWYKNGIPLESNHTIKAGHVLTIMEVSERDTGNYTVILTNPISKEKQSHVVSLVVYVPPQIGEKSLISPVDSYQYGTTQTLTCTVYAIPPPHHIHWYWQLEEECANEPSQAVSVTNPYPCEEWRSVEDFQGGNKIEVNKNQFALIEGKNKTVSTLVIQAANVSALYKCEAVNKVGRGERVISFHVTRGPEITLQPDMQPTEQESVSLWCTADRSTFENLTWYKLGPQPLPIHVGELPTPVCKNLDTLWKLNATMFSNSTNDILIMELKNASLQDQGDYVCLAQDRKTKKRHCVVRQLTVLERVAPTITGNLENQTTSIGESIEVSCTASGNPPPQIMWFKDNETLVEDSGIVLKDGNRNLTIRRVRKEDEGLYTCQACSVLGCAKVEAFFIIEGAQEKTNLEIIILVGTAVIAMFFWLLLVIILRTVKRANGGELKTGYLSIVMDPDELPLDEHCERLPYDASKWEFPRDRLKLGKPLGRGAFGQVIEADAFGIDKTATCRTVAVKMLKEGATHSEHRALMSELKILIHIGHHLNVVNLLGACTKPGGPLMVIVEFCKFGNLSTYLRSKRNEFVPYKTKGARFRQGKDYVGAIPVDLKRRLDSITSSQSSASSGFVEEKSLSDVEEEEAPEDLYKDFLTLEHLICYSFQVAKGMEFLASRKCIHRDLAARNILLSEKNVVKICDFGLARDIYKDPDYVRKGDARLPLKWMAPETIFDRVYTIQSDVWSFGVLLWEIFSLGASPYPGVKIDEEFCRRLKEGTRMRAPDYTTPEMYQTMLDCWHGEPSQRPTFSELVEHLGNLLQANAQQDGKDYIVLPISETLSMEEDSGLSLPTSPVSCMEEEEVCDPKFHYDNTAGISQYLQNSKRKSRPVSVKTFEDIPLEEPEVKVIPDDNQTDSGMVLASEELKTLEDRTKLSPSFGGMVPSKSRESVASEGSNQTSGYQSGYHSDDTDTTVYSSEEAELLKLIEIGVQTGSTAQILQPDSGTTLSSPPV
Lab note - cut at 400 nM for IC50: class 1 if strictly below, class 0 if not.

Here's what some known entries look like.
O=C(Nc1cnc(Nc2ccc(CCCN3CCCC3)cc2)nc1)c1c(Cl)cccc1Cl: class 0
O=C(Nc1cnc(Nc2ccc(OCCN3CCCC3)cc2)nc1)c1cc(O)ccc1Cl [drawing 200]: class 0
O=C(Nc1cnc(Nc2ccc(C(=O)N3CCNCC3)cc2)nc1)c1cc(O)ccc1Cl [drawing 205]: class 1
O=C(Nc1cnc(Nc2cccc(OCCN3CCCC3)c2)nc1)c1cc(O)ccc1Cl [drawing 201]: class 0
CC(C)N(CCO)C(=O)c1ccc(Nc2ncc(NC(=O)c3cc(O)ccc3Cl)cn2)cc1 [drawing 210]: class 0
O=C(NCCN1CCCC1)c1csc(Nc2ncc(NC(=O)c3cc(O)ccc3Cl)cn2)n1 [drawing 209]: class 0

IC50 under 400 nM? Item: O=C(NCCN1CCCC1)c1ccc(Nc2ncc(NC(=O)c3cc(O)ccc3Cl)cn2)cn1 [drawing 204] class 0

IC50 under 400 nM? Item: O=C(Nc1cnc(Nc2ccc(S(=O)(=O)CCCN3CCCC3)cc2)nc1)c1cc(O)ccc1Cl [drawing 206] class 1
